PARAMETER: melting point

{"MOLECULE": "O=C(Cc1cc(O)ccc1O)N(c1ccc(O)cc1)c1ccc(O)cc1", "ENDPOINT RESULT": "124 to 126 °C"}
{"MOLECULE": "O=C(Cc1ccc(O)c(O)c1)Nc1ccc(O)cc1", "ENDPOINT RESULT": "192 to 194 °C"}
{"MOLECULE": "O=C(Nc1ccc(O)cc1O)Nc1cc(O)ccc1O", "ENDPOINT RESULT": "> 155 °C (dec.)"}
{"MOLECULE": "O=C(Nc1ccc(O)cc1)Nc1ccc(O)c(O)c1", "ENDPOINT RESULT": "184 to 187 °C"}
{"MOLECULE": "O=C(Nc1ccc(O)cc1)Nc1cc(O)ccc1O", "ENDPOINT RESULT": "180 to 182 °C"}
{"MOLECULE": "O=C(Cc1cc(O)ccc1O)Nc1cc(O)ccc1O", "ENDPOINT RESULT": "204 to 207 °C (dec.)"}
{"MOLECULE": "O=C(Nc1cc(O)ccc1O)Nc1cc(O)ccc1O [Compound 16, N,N′-bis(2,5-Dihydroxyphenyl)urea]", "ENDPOINT RESULT": "109 °C (dec.)"}
{"MOLECULE": "O=C(Cc1cc(O)ccc1O)Nc1ccc(O)c(O)c1", "ENDPOINT RESULT": "180 °C (dec.)"}
{"MOLECULE": "O=C(Cc1cc(O)ccc1O)Nc1ccc(O)cc1", "ENDPOINT RESULT": "185 to 187 °C (dec.)"}
{"MOLECULE": "O=C(Nc1ccc(O)cc1)N(c1ccc(O)cc1)c1ccc(O)cc1", "ENDPOINT RESULT": "186 to 187 °C (dec.)"}

Data origin, for the record: paper PMC7555119
